The reported measurements were obtained from ChEMBL document CHEMBL5058577.

System: Fibroblast
Test: Multiplex assay against human fibroblast
Assay type: toxicity, cell-based
Settings: 12 h, 1 µM, compound concentration 1 uM, replicate 1
Measured Parameter: Population Normal (%)
Don't forget the unit after the number, please.

- Compound: "Cc1onc(-c2ccccc2Cl)c1C(=O)N(C)c1ccc(Cl)cc1"
  Population Normal (%): "92%"
- Compound: "CC(C)(C)c1cc(NC(=O)Nc2ccc(-c3cn4c(n3)sc3cc(OCCN5CCOCC5)ccc34)cc2)no1"
  Population Normal (%): "97%"

*Q* Quick one: Population Normal (%) of CC(C)COc1ccc(CNC(=O)N(Cc2ccc(F)cc2)C2CCN(C)CC2)cc1 ?
*A* 100%

*Q* Quick one: Population Normal (%) of Cc1noc(-c2ccc(-c3ccc(CC(=O)O)cc3)cc2)c1NC(=O)O[C@H](C)c1ccccc1Cl ?
*A* 100%

*Q* Quick one: Population Normal (%) of NCCc1cn(S(=O)(=O)c2c(Cl)nc3sccn23)c2ccccc12.O=C(O)C(=O)O ?
*A* 95%

*Q* Quick one: Population Normal (%) of Cc1sc2c(c1C)C(c1ccc(Cl)cc1)=N[C@@H](CC(=O)NCCCCCCCCNC(=O)COc1cccc3c1C(=O)N(C1CCC(=O)NC1=O)C3=O)c1nnc(C)n1-2 (stereo partly drawn) ?
*A* 96%

*Q* Quick one: Population Normal (%) of Cl.N=C(N)NC(=O)Cc1c(Cl)cccc1Cl [GUANFACINE HYDROCHLORIDE] ?
*A* 97%

*Q* Quick one: Population Normal (%) of N#Cc1cc(F)cc(-c2nc(-c3ccc(F)cn3)no2)c1 ?
*A* 100%

*Q* Quick one: Population Normal (%) of O=C(CCCc1ccccc1)Nc1nc2ccccc2c(=O)s1 ?
*A* 97%

*Q* Quick one: Population Normal (%) of CN1CCN(c2cc(-c3ccccc3)nc(N)n2)CC1 ?
*A* 97%

*Q* Quick one: Population Normal (%) of Br.CS(=O)(=O)Nc1c(O)ccc2c1CCCC2C1=NCCN1 (stereo not drawn) ?
*A* 98%

*Q* Quick one: Population Normal (%) of COc1cccc2c1c(NS(=O)(=O)c1ccc(Cl)s1)nn2Cc1cccc(CNC(=O)C(C)(C)O)c1 ?
*A* 99%

*Q* Quick one: Population Normal (%) of Cc1c(CC(=O)O)c2cccnc2n1Cc1ccc(S(C)(=O)=O)cc1C(F)(F)F ?
*A* 96%

====

Known Total Cell Count of a selection of molecules
Test system: Fibroblast
Experiment: Multiplex assay against human fibroblast
Format: toxicity, cell-based
Settings: 12 h, 10 µM, compound concentration 10 uM, replicate 2
Enter a number only.

A selection of reference data follows.
- Molecule: "Cc1c(CC(=O)O)c2cccnc2n1Cc1ccc(S(C)(=O)=O)cc1C(F)(F)F"
  Total Cell Count: 139
- Molecule: "CCCOc1ccc2[nH]cc(C3=CCNCC3)c2n1.Cl"
  Total Cell Count: 125
- Molecule: "Cc1cnc(-c2cc(N3CCN(C(=O)CCS(C)(=O)=O)CC3)ncc2Cl)c(C)c1"
  Total Cell Count: 121
- Molecule: "COc1ccccc1N1CCN(C[C@@H](C(=O)NC(C)(C)C)c2ccccc2)CC1.Cl.Cl"
  Total Cell Count: 116
- Molecule: "CCCCCC(O)/C=C/[C@H]1C(=O)CC(O)C1C/C=C\\CCCC(=O)O (stereo partly drawn)"
  Total Cell Count: 101
- Molecule: "CN[C@@H](C)C(=O)N[C@H](C(=O)N1CCC[C@H]1C(=O)Nc1snnc1-c1ccccc1)C1CCCCC1"
  Total Cell Count: 150

*Q* Quick one: Total Cell Count of N#Cc1cc(F)cc(-c2nc(-c3ccc(F)cn3)no2)c1 ?
*A* 110

*Q* Quick one: Total Cell Count of CC(C)c1noc(N2CCC(COc3ccc(-c4ccc(S(C)(=O)=O)cc4)nc3)CC2)n1 ?
*A* 145

*Q* Quick one: Total Cell Count of Cl.NCCc1ccc(O)c(O)c1 [DOPAMINE HYDROCHLORIDE] ?
*A* 127

*Q* Quick one: Total Cell Count of CN1CCN(c2cc(-c3ccccc3)nc(N)n2)CC1 ?
*A* 118

*Q* Quick one: Total Cell Count of CCCCC1=NC2(CCCC2)C(=O)N1Cc1ccc(-c2ccccc2-c2nnn[nH]2)cc1 ?
*A* 129
